# Volatility Reduction Over DGA Dicamba Spray (%) Humidome Test annotations
Assay: Humidome test: dicamba volatilized into air from spray solution applied to soil
Assay type: physicochemical
Conditions: dicamba salt 0.6 wt. % a.e., potassium glyphosate 1.2 wt. % a.e.; sprayed on soil at 10 GPA, 24 hours; vs CLARITY without glyphosate
Answer format: numeric, % implied, no suffix.

Consider the following illustrative entries.
COMPOUND | READOUT_UNIT | EXPERIMENTAL_RESULT
CC(C)c1ncc[nH]1.COc1c(Cl)ccc(Cl)c1C(=O)O [Salt 9] | % | 67
CCc1nc(C)c[nH]1.COc1c(Cl)ccc(Cl)c1C(=O)O [Salt 10] | % | 85
COc1c(Cl)ccc(Cl)c1C(=O)O.Cc1ncc[nH]1 [Salt 12] | % | 50

Output Volatility Reduction Over DGA Dicamba Spray (%) Humidome Test of CCc1ncc[nH]1.COc1c(Cl)ccc(Cl)c1C(=O)O [Salt 11]
60

* * *

Experiment: Tube test: dicamba volatilized from spray solution into air
Assay type: physicochemical
Details: dicamba salt 2 wt. % a.e., potassium glyphosate 6 wt. % a.e.; air about 35° C., about 40% RH, 24 hours; vs 2 wt. % a.e. CLARITY without glyphosate
# Volatility Reduction Over DGA Dicamba Spray (%) Tube Test annotations
Answer format: numeric, % implied, no suffix.

Consider the following illustrative entries.
COMPOUND | READOUT_UNIT | EXPERIMENTAL_RESULT
CC(C)c1ncc[nH]1.COc1c(Cl)ccc(Cl)c1C(=O)O [Salt 9] | % | 65
CCCN1CCC(=O)CC1.COc1c(Cl)ccc(Cl)c1C(=O)O [Salt 16] | % | 20
C1CCN(C2CCNCC2)CC1.COc1c(Cl)ccc(Cl)c1C(=O)O.COc1c(Cl)ccc(Cl)c1C(=O)O [Salt 19] | % | 23
CCc1nc(C)c[nH]1.COc1c(Cl)ccc(Cl)c1C(=O)O [Salt 10] | % | 72

Output Volatility Reduction Over DGA Dicamba Spray (%) Tube Test of COc1c(Cl)ccc(Cl)c1C(=O)O.OCCN1CCNCC1 [Salt 4]
69

Output Volatility Reduction Over DGA Dicamba Spray (%) Tube Test of CN1CCN(C)CC1.COc1c(Cl)ccc(Cl)c1C(=O)O [Salt 23]
23

Output Volatility Reduction Over DGA Dicamba Spray (%) Tube Test of CC(C)CN1CCC(=O)CC1.COc1c(Cl)ccc(Cl)c1C(=O)O [Salt 17]
57

Output Volatility Reduction Over DGA Dicamba Spray (%) Tube Test of COc1c(Cl)ccc(Cl)c1C(=O)O.OCCN1CCN(CCO)CC1 [Salt 24]
57

Output Volatility Reduction Over DGA Dicamba Spray (%) Tube Test of CCCCN1CCNCC1.COc1c(Cl)ccc(Cl)c1C(=O)O [Salt 5]
70

Output Volatility Reduction Over DGA Dicamba Spray (%) Tube Test of C(CC1CCNCC1)CC1CCNCC1.COc1c(Cl)ccc(Cl)c1C(=O)O.COc1c(Cl)ccc(Cl)c1C(=O)O [Salt 22]
60

Output Volatility Reduction Over DGA Dicamba Spray (%) Tube Test of CCN1CCNCC1.COc1c(Cl)ccc(Cl)c1C(=O)O [Salt 6]
83

Output Volatility Reduction Over DGA Dicamba Spray (%) Tube Test of C1CCC(N2CCNCC2)CC1.COc1c(Cl)ccc(Cl)c1C(=O)O [Salt 3]
75

Output Volatility Reduction Over DGA Dicamba Spray (%) Tube Test of CCc1ncc[nH]1.COc1c(Cl)ccc(Cl)c1C(=O)O [Salt 11]
67

* * *

Assay: Humidome test: dicamba volatilized into air from spray solution applied to soil
Type: physicochemical
Details: dicamba salt 0.6 wt. % a.e., potassium glyphosate 0.9 wt. % a.e.; sprayed on soil at 10 GPA, 24 hours; vs CLARITY without glyphosate
# Volatility Reduction Over DGA Dicamba Spray (%) Humidome Test annotations
Quick note: number first, unit second.

Consider the following illustrative entries.
COMPOUND | EXPERIMENTAL_RESULT
CCc1nc(C)c[nH]1.COc1c(Cl)ccc(Cl)c1C(=O)O [Salt 10] | 86%
COc1c(Cl)ccc(Cl)c1C(=O)O.Cc1c[nH]c(-c2ccccc2)n1 [Salt 14] | 92%
C(CC1CCNCC1)CC1CCNCC1.COc1c(Cl)ccc(Cl)c1C(=O)O.COc1c(Cl)ccc(Cl)c1C(=O)O [Salt 22] | 68%
CC(C)c1ncc[nH]1.COc1c(Cl)ccc(Cl)c1C(=O)O [Salt 9] | 63%
COc1c(Cl)ccc(Cl)c1C(=O)O.Cc1ncc[nH]1 [Salt 12] | 46%
COc1c(Cl)ccc(Cl)c1C(=O)O.OCCN1CCN(CCO)CC1 [Salt 24] | 76%

Turning now to a further record.
Output Volatility Reduction Over DGA Dicamba Spray (%) Humidome Test of CCc1ncc[nH]1.COc1c(Cl)ccc(Cl)c1C(=O)O [Salt 11]
67%
